- ASSAYED_SYSTEM: rat P2X3 receptor (Rattus norvegicus, UniProt P49654)
- Construct: expressed in transfected cells; host or cells: CHO-K1
- Sequence (P49654 whole entry): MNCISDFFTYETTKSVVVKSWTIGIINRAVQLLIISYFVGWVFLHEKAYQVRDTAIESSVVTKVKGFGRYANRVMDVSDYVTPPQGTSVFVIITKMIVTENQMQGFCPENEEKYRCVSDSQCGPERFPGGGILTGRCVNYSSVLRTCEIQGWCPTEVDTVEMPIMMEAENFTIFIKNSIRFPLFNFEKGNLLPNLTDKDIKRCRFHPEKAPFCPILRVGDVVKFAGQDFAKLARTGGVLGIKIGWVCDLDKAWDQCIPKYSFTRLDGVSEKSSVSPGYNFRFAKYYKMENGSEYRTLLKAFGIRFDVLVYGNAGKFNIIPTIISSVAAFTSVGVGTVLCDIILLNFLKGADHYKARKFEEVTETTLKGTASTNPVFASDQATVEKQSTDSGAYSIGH
- EXPERIMENTAL_PROTOCOL: P2X3 FLIPR (Fluorometric Imaging Plate Reader) assay
- Format: cell-based
- PROTOCOL_CONDITIONS: CHO-K1 cells transfected with rat P2X3; agonist α,β-meATP 1 μM; FLIPR calcium fluorescence; read-out: pKi P2X3 (converted)
So basically: is Ki under 8 nM? Then 1.0. Not under? Then 0.0.

Find out if reported Ki for Cc1ccc(-c2cc(C(=O)NCc3cnc(C)cn3)cc(-n3c(=O)[nH]c4cncnc43)c2)nc1 is less than 8 nM
1.0

Strictly below 8 nM in Ki? Cc1ccc(-c2cc(C(=O)NCc3cnc(C)cn3)cc(N3C(=O)OC[C@H]3C(C)C)c2)cc1
0.0

Determine whether this molecule shows Ki lower than 8 nM (ties excluded): Cc1ccc(-c2cc(C(=O)N[C@@H](C)CO)cc(N3C(=O)OC[C@H]3C(C)C)c2)cc1
1.0

Given the entry Cc1ccc(-c2cc(C(=O)NCc3ncc(C)cn3)cc(-n3c(=O)oc4ccccc43)c2)nc1 , would its reported Ki be below 8 nM?
1.0

is_below(Ki, 8 nM) for Cc1ccc(-c2cc(C(=O)NC(C)c3cnccn3)cc(-n3c(=O)oc4ccccc43)c2)cc1 (stereo not shown) ?
0.0

State whether 8 nM exceeds Ki recorded for Cc1ccc(-c2cc(C(=O)NCc3cnc(C)cn3)cc(N3C(=O)CCC3C)c2)nc1 (stereo not shown) .
0.0

Record Cc1ccc(-c2cc(C(=O)N[C@@H](C)CO)cc(N3C(=O)OC[C@H]3C(C)C)c2)c(F)c1 : is its Ki strictly below 8 nM?
1.0

Does this molecule meet the criterion Ki < 8 nM? Cc1ccc(-c2cc(C(=O)N[C@@H](C)CO)cc(N3C(=O)OC[C@H]3C(C)C)c2)nc1
1.0

Please check: Ki for Cc1ccc(-c2cc(C(=O)NC(C)c3cnccn3)cc(N3C(=O)OC[C@H]3C(C)C)c2)cc1 (stereo partly shown) , strictly under 8 nM or not?
0.0

# check: Ki < 8 nM for Cc1ccc(-c2cc(C(=O)NCc3cnc(C)cn3)cc(N3C(=O)OC[C@H]3C(C)C)c2)nc1
1.0

Strictly below 8 nM in Ki? COCC(C)NC(=O)c1cc(-c2ccc(C)cc2)cc(N2CCNC2=O)c1 (stereo not shown)
0.0

is_below(Ki, 8 nM) for Cc1ccc(-c2cc(C(=O)NC(C)c3cnccn3)cc(N3C(=O)OC[C@H]3C(C)C)c2)nc1 (stereo partly shown) ?
1.0

Below 8 nM on Ki? Entry Cc1ccc(-c2cc(C(=O)NCc3cnc(C)cn3)cc(N3C(=O)OC[C@@H]3C(C)C)c2)cc1
0.0

Does the reported Ki of Cc1ccc(-c2cc(C(=O)NC(C)c3cnccn3)cc(N3C(=O)OCC3(C)C)c2)nc1 (stereo not shown) stay below 8 nM?
1.0

Please let me know if Cc1ccc(-c2cc(C(=O)NC(C)c3cnccn3)cc(N3C(=O)OC[C@H]3C(C)C)c2)c(F)c1 (stereo partly shown) shows Ki below 8 nM.
0.0

---

- ASSAYED_SYSTEM: rat P2X3 receptor (Rattus norvegicus)
- Construct: expressed in transfected cells; host or cells: CHO-K1
- EXPERIMENTAL_PROTOCOL: P2X3 FLIPR (Fluorometric Imaging Plate Reader) assay
- Assay type: cell-based
- PROTOCOL_CONDITIONS: CHO-K1 cells transfected with rat P2X3; agonist α,β-meATP 1 μM; FLIPR calcium fluorescence; read-out: pKi P2X3 (converted)
Assign labels as follows, please: condition met for Ki below 8 nM; condition not met for Ki equal to or exceeding 8 nM.

Please indicate whether the reported Ki of Cc1ccc(-c2cc(C(=O)NCc3cnc(C)nc3)cc(-n3c(=O)oc4ccccc43)c2)nc1 [Compound 33] is strictly below 8 nM.
condition met

Please state whether Ki is below 8 nM for Cc1ccc(-c2cc(C(=O)NC3CC3)cc(N3C(=O)OC[C@H]3C(C)C)c2)cc1 [Compound 41]
condition met

State whether 8 nM exceeds Ki recorded for Cc1ccc(-c2cc(C(=O)NC(C)c3cnccn3)cc(N3C(=O)Cc4ccccc43)c2)cc1 (stereo not shown) [Compound 54] .
condition not met

Ki under 8 nM? Item: Cc1ccc(-c2cc(C(=O)NCc3cnc(C)cn3)cc(-n3c(=O)oc4ccccc43)c2)cc1 [Compound 51]
condition not met

A record lists CCC1COC(=O)N1c1cc(C(=O)NC(C)c2cnccn2)cc(-c2ccc(C)cn2)c1 (stereo not shown) [Compound 18] . Is its Ki below 8 nM?
condition met

Item Cc1ccc(-c2cc(C(=O)NCc3cccnn3)cc(-n3c(=O)oc4ccccc43)c2)nc1 [Compound 14] : Ki beneath 8 nM, strictly?
condition not met

Problem: For the molecule COC[C@@H](C)NC(=O)c1cc(-c2ccc(C)cn2)cc(N2C(=O)OC[C@H]2C(C)C)c1 [Compound 7] , is Ki under 8 nM?
condition met

is_below(Ki, 8 nM) for CCC1COC(=O)N1c1cc(C(=O)N[C@@H](C)CO)cc(-c2ccc(C)cn2)c1 (stereo partly shown) [Compound 17] ?
condition not met

Does the reported Ki of the following molecule sit strictly below 8 nM? Cc1ccc(-c2cc(C(=O)NCc3ccc(C)nn3)cc(N3C(=O)OCC3(C)C)c2)nc1 [Compound 31]
condition met

hey, is Ki for Cc1ccc(-c2cc(C(=O)NCc3ccc(C)nn3)cc(-n3c(=O)oc4ccccc43)c2)nc1 [Compound 13] lower than 8 nM or not?
condition met

For this molecule, is Ki lower than 8 nM? Cc1ccc(-c2cc(C(=O)NC(C)c3cnccn3)cc(N3C(=O)OC[C@@H]3C(C)C)c2)cc1 (stereo partly shown) [Compound 45]
condition not met

Criterion: Ki strictly below 8 nM. Is it met by Cc1ccc(-c2cc(C(=O)NCc3cnc(C)cn3)cc(N3C(=O)Cc4ccccc43)c2)nc1 [Compound 5] ?
condition not met

Is the reported Ki for CCC[C@@H]1COC(=O)N1c1cc(C(=O)NC(C)c2cnccn2)cc(-c2ccc(C)cn2)c1 (stereo partly shown) [Compound 23] strictly below 8 nM?
condition not met

Identify whether the molecule COCC(C)NC(=O)c1cc(-c2ccc(C)cc2)cc(N2C(=O)CCC2C)c1 (stereo not shown) [Compound 36] records Ki below 8 nM.
condition not met

Is it true that Ki reported for CCC[C@@H]1COC(=O)N1c1cc(C(=O)NCc2cnc(C)cn2)cc(-c2ccc(C)cn2)c1 [Compound 24] is less than 8 nM?
condition not met

For this molecule, is Ki lower than 8 nM? Cc1ccc(-c2cc(C(=O)NC3CC3)cc(N3C(=O)OC[C@H]3C(C)C)c2)nc1 [Compound 8]
condition met

---

- ASSAYED_SYSTEM: rat P2X3 receptor (Rattus norvegicus, UniProt P49654)
- Construct: expressed in transfected cells; host or cells: CHO-K1
- EXPERIMENTAL_PROTOCOL: P2X3 FLIPR (Fluorometric Imaging Plate Reader) assay
- Format: cell-based
- PROTOCOL_CONDITIONS: CHO-K1 cells transfected with rat P2X3; agonist α,β-meATP 1 μM; FLIPR calcium fluorescence; read-out: pKi P2X3 (converted)
MEASURED_QUANTITY: log10(Ki) (log10 of the value in nM)
Lab note - Ki converted to log10 from values in nM.

For the molecule Cc1ccc(-c2cc(C(=O)N[C@@H](C)CO)cc(-n3c(=O)oc4ccccc43)c2)nc1 , give its reported log10(Ki).
0.52

// fetch log10(Ki) given entry Cc1ccc(-c2cc(C(=O)NC(C)c3cnccn3)cc(-n3c(=O)[nH]c4ccccc43)c2)nc1 (centres unmarked)
0.61

Please report log10(Ki) for the following molecule: Cc1ccc(-c2cc(C(=O)N[C@@H](C)CO)cc(N3C(=O)OC[C@@H]3C(C)C)c2)cc1
3.41

Quote log10(Ki) reported for CCC1COC(=O)N1c1cc(C(=O)NCc2cnc(C)cn2)cc(-c2ccc(C)cn2)c1 (centres unmarked) please.
0.63

Complete the entry with log10(Ki) for Cc1ccc(-c2cc(C(=O)NCc3cnc(C)cn3)cc(N3C(=O)OCC3(C)C)c2)nc1
0.55

Answer with reported log10(Ki) of Cc1ccc(-c2cc(C(=O)NC(C)c3cnccn3)cc(-n3c(=O)oc4ccccc43)c2)nc1 (centres unmarked)
0.49

Give log10(Ki) for the following molecule: Cc1ccc(-c2cc(C(=O)NC(C)c3cnccn3)cc(N3C(=O)OC[C@H]3C)c2)nc1 (some centres unmarked)
3.00

Please give measured log10(Ki) of the following entry: Cc1ccc(-c2cc(C(=O)N[C@@H](C)CO)cc(N3C(=O)OCC3(C)C)c2)nc1
1.45

// Input: Cc1ccc(-c2cc(C(=O)NCc3cncnc3)cc(-n3c(=O)oc4ccccc43)c2)nc1 . Output its log10(Ki) only.
0.78

State its log10(Ki) for this molecule: Cc1ccc(-c2cc(C(=O)NCc3cnc(C)cn3)cc(N3C(=O)Cc4ccccc43)c2)cc1
0.86

Tell me measured log10(Ki) for Cc1ccc(-c2cc(C(=O)N[C@@H](C)CO)cc(N3C(=O)CCC3C)c2)nc1 (some centres unmarked) please.
2.96

Please list log10(Ki) recorded for the molecule Cc1ccc(-c2cc(C(=O)NCc3cnc(C)cn3)cc(N3C(=O)OCC34CC4)c2)nc1
0.64

Could you please provide reported log10(Ki) for CCC[C@@H]1COC(=O)N1c1cc(C(=O)N[C@@H](C)CO)cc(-c2ccc(C)cn2)c1 ? Thanks!
3.58

State its log10(Ki) for this molecule: Cc1ccc(-c2cc(C(=O)NCc3cnc(C)cn3)cc(N3C(=O)OC[C@H]3C(C)C)c2)c(F)c1
1.12
